Exercise: state measured selectivity ratio for each of the molecules provided.
assay: Selectivity index, ratio of IC50 for CHO cells to IC50 for chloroquine-sensitive Plasmodium falciparum NF54; type: toxicity, cell-based; conditions: hamster, read-out: Ratio IC50
Field format: numeric only.

Form: molecule = CCN(CC)c1nc2cc(Nc3ccnc4cc(Cl)ccc34)ccc2o1 ; selectivity ratio = 448

selectivity ratio recorded for this molecule, Clc1ccc2c(Nc3ccc4oc(NCCN5CCOCC5)nc4c3)ccnc2c1 , is 1150

Memo: CN1CCN(Nc2nc3cc(Nc4ccnc5cc(Cl)ccc45)ccc3o2)CC1 , reported selectivity ratio: 849

GET /value?item= Clc1ccc2c(Nc3ccc4oc(NCc5cccnc5)nc4c3)ccnc2c1 &field=selectivity ratio returns 532

Lookup result for Clc1ccc2c(Nc3ccc4oc(N5CCN(c6ccccc6)CC5)nc4c3)ccnc2c1 ; measured selectivity ratio: 105

Consider CCN(CC)Cc1cc(Nc2ccnc3cc(Cl)ccc23)ccc1O [AMODIAQUINE] . Its measured selectivity ratio is 36800

The recorded selectivity ratio for entry Clc1cccc(CNc2nc3cc(Nc4ccnc5cc(Cl)ccc45)ccc3o2)c1 equals 207

Input Clc1ccc2c(Nc3ccc4oc(NCCCN5CCOCC5)nc4c3)ccnc2c1 . Output selectivity ratio: 351

So for Clc1ccc2c(Nc3ccc4oc(NCCCN5CCCCC5)nc4c3)ccnc2c1 , the logged selectivity ratio turned out to be 1060

GET /value?item= CCN(CC)CCCNc1nc2cc(Nc3ccnc4cc(Cl)ccc34)ccc2o1 &field=selectivity ratio returns 455

Value of selectivity ratio reported for the molecule Clc1cccc(N2CCN(c3nc4cc(Nc5ccnc6cc(Cl)ccc56)ccc4o3)CC2)c1 is 852

The recorded selectivity ratio for entry CN(C)CCNc1nc2cc(Nc3ccnc4cc(Cl)ccc34)ccc2o1 equals 633

// recorded selectivity ratio for CN(C)CCCNc1nc2cc(Nc3ccnc4cc(Cl)ccc34)ccc2o1 : 665

Kindly note the recorded selectivity ratio for CCN(CC)CCNc1nc2cc(Nc3ccnc4cc(Cl)ccc34)ccc2o1 , which is 1040

Entry Clc1ccc2c(Nc3ccc4oc(NCCN5CCCCC5)nc4c3)ccnc2c1 — recorded selectivity ratio = 758

For Clc1ccc2c(Nc3ccc4oc(NCCN5CCCC5)nc4c3)ccnc2c1 the molecule record lists selectivity ratio as 327

// selectivity ratio lookup, molecule = O=C1CCCN1CCCNc1nc2cc(Nc3ccnc4cc(Cl)ccc34)ccc2o1 , result: 15.8

###

experiment: Total clearance in C57Bl/6 mouse at 5 mg/kg, iv; assay type: ADME, organism-based; details: in vivo
observed.property: clearance
Please state the value followed by its unit.

Kindly note the recorded clearance for Clc1ccc2c(Nc3ccc4oc(NCCCN5CCCCC5)nc4c3)ccnc2c1 , which is 28.3 mL/min/kg

###

Could you please report measured pIC50 for the items listed next?
test system: CHO; test: Cytotoxicity against CHO cells by MTT assay; format: cell-based; conditions: Cricetulus griseus
Please keep in mind that pIC50 is minus log10 of the molar concentration; only the number is needed.

// recorded pIC50 for CCN(CC)c1nc2cc(Nc3ccnc4cc(Cl)ccc34)ccc2o1 : 3.64

Lab note: measured pIC50 of Clc1ccc2c(Nc3ccc4oc(N5CCN(c6ccccc6)CC5)nc4c3)ccnc2c1 was 4.54

Input Clc1ccc2c(Nc3ccc4oc(NCCCN5CCOCC5)nc4c3)ccnc2c1 . Output pIC50: 4.86

The reported value for Clc1cccc(CNc2nc3cc(Nc4ccnc5cc(Cl)ccc45)ccc3o2)c1 in terms of pIC50 is 4.59

###

assay: Inhibition of beta haematin formation after 5 to 6 hrs by pyridine-ferrichrome method; assay type: physicochemical
Entries whose IC50 is below 100 µM take criterion met; entries at or above 100 µM take criterion not met.

Inquiry: Hello, I'm reviewing records and need to know if IC50 of Clc1ccc2c(Nc3ccc4oc(NCCCN5CCOCC5)nc4c3)ccnc2c1 is below 100 µM. Could you check?
Reply text: criterion met

Inquiry: Below 100 µM on IC50? Entry CN1CCN(c2nc3cc(Nc4ccnc5cc(Cl)ccc45)ccc3o2)CC1
Reply text: criterion met

Inquiry: Determine whether this molecule shows IC50 lower than 100 µM (ties excluded): Clc1ccc2c(Nc3ccc4oc(N5CCN(c6ccccc6)CC5)nc4c3)ccnc2c1
Reply text: criterion met

Inquiry: Lab log: compare recorded IC50 with 100 µM; is it strictly lower for Clc1cccc(CNc2nc3cc(Nc4ccnc5cc(Cl)ccc45)ccc3o2)c1 ?
Reply text: criterion met

Inquiry: Hello, I'm reviewing records and need to know if IC50 of Clc1ccc2c(Nc3ccc4oc(NCCN5CCCCC5)nc4c3)ccnc2c1 is below 100 µM. Could you check?
Reply text: criterion met

Inquiry: Dear colleague, could you confirm whether IC50 of CN(C)CCCNc1nc2cc(Nc3ccnc4cc(Cl)ccc34)ccc2o1 falls below 100 µM? Thanks.
Reply text: criterion not met

Inquiry: IC50 under 100 µM? Item: CCNc1nc2cc(Nc3ccnc4cc(Cl)ccc34)ccc2o1
Reply text: criterion met

Inquiry: Threshold test, IC50 < 100 µM: CCN(CC)Cc1cc(Nc2ccnc3cc(Cl)ccc23)ccc1O
Reply text: criterion met

Inquiry: Please indicate whether the reported IC50 of Clc1ccc2c(Nc3ccc4oc(NCCc5ccccn5)nc4c3)ccnc2c1 is strictly below 100 µM.
Reply text: criterion met

Inquiry: Regarding CCN(CC)CCCNc1nc2cc(Nc3ccnc4cc(Cl)ccc34)ccc2o1 , kindly confirm whether its IC50 is beneath 100 µM.
Reply text: criterion not met

Inquiry: Here's an entry: Clc1cccc(N2CCN(c3nc4cc(Nc5ccnc6cc(Cl)ccc56)ccc4o3)CC2)c1 . Is its IC50 below 100 µM?
Reply text: criterion met

Inquiry: Strictly below 100 µM in IC50? CCN(CC)c1nc2cc(Nc3ccnc4cc(Cl)ccc34)ccc2o1
Reply text: criterion met

Inquiry: Quick check: does CN(C)CCNc1nc2cc(Nc3ccnc4cc(Cl)ccc34)ccc2o1 have IC50 under 100 µM?
Reply text: criterion not met

Inquiry: Find out if reported IC50 for Clc1ccc2c(Nc3ccc4oc(NCc5ccncc5)nc4c3)ccnc2c1 is less than 100 µM
Reply text: criterion met

Inquiry: State whether 100 µM exceeds IC50 recorded for Clc1ccc2c(Nc3ccc4oc(NCCN5CCOCC5)nc4c3)ccnc2c1 .
Reply text: criterion met

Inquiry: Lab log: compare recorded IC50 with 100 µM; is it strictly lower for Clc1ccc2c(Nc3ccc4oc(NCCCN5CCCCC5)nc4c3)ccnc2c1 ?
Reply text: criterion not met

Inquiry: Just wondering, is IC50 of CCN(CC)CCNc1nc2cc(Nc3ccnc4cc(Cl)ccc34)ccc2o1 below 100 µM?
Reply text: criterion not met

Inquiry: Lab note: IC50 threshold 100 µM. Does this molecule come in strictly under it? CN1CCN(Nc2nc3cc(Nc4ccnc5cc(Cl)ccc45)ccc3o2)CC1
Reply text: criterion met

Inquiry: Criterion: IC50 strictly below 100 µM. Is it met by Clc1ccc2c(Nc3ccc4oc(NCc5ccccn5)nc4c3)ccnc2c1 ?
Reply text: criterion not met

Inquiry: Does this molecule meet the criterion IC50 < 100 µM? Clc1ccc2c(Nc3ccc4oc(NCCN5CCCC5)nc4c3)ccnc2c1
Reply text: criterion met

###

assay: Lipophilicity, log P of the compound; assay type: physicochemical; details: octanol/water
Record form. Attribute: logP. Fill in for each entry.
API note: the answer field is a bare number with no unit suffix.

So, CCN(CC)CCCNc1nc2cc(Nc3ccnc4cc(Cl)ccc34)ccc2o1 ? Its logP was 4.12

Value of measured logP for the entry CN(C)CCCNc1nc2cc(Nc3ccnc4cc(Cl)ccc34)ccc2o1 : 3.44

Note to self: logP recorded for Clc1cccc(N2CCN(c3nc4cc(Nc5ccnc6cc(Cl)ccc56)ccc4o3)CC2)c1 was 6.57

Form: compound = Clc1ccc2c(Nc3ccc4oc(NCc5cccnc5)nc4c3)ccnc2c1 ; logP = 4.68

So for Clc1ccc2c(Nc3ccc4oc(NCCc5ccccn5)nc4c3)ccnc2c1 , the logged logP turned out to be 4.42

CN1CCN(Nc2nc3cc(Nc4ccnc5cc(Cl)ccc45)ccc3o2)CC1 has a reported logP of 2.6

Recorded logP (compound Clc1ccc2c(Nc3ccc4oc(NCCCN5CCOCC5)nc4c3)ccnc2c1 ): 3.09

The reported logP of the compound Clc1ccc2c(Nc3ccc4oc(N5CCN(c6ccccc6)CC5)nc4c3)ccnc2c1 was 6.05

Memo: CCNc1nc2cc(Nc3ccnc4cc(Cl)ccc34)ccc2o1 , reported logP: 3.75

// CN(C)CCNc1nc2cc(Nc3ccnc4cc(Cl)ccc34)ccc2o1 : logP value = 3.38

###

test: Cmax in C57Bl/6 mouse at 20 mg/kg, po; format: ADME, organism-based; set-up: dose 20 mg/kg, route oral; conditions: in vivo
observed.property: Cmax (nM)
Provide only the numeric value, understood in nM.

Recorded Cmax (molecule Clc1ccc2c(Nc3ccc4oc(NCCCN5CCCCC5)nc4c3)ccnc2c1 ): 1010

###

experiment: Elimination half life in C57Bl/6 mouse at 20 mg/kg, po; assay type: ADME, organism-based; conditions: in vivo, read-out: beta t1/2 (converted)
observed.property: half-life (h)
The answer is to be given in h; state only the numeric part.

So, Clc1ccc2c(Nc3ccc4oc(NCCCN5CCCCC5)nc4c3)ccnc2c1 ? Its half-life was 10.9
